IC50 for assorted molecules
System: Trichophyton rubrum
procedure-summary: Antifungal activity in vitro, resazurin growth inhibition screen: Trichophyton rubrum
Assay type: cell-based
condition-label: Trichophyton rubrum B68183; read-out: Inf. C pIC50 (converted)

Examples with their reported IC50 follow.
[
  {
    "structure-smiles-string": "FC1(F)CCc2cc(C3=NCc4cccc(Cl)c4-n4cccc43)ccc2O1",
    "subject-of-test": "Trichophyton rubrum",
    "measurement-type": "IC50",
    "assay-value": "407 nM"
  },
  {
    "structure-smiles-string": "CN1C(=O)C(C)(C)c2cc(C3=NCc4c(Cl)cccc4-n4cccc43)ccc21",
    "subject-of-test": "Trichophyton rubrum",
    "measurement-type": "IC50",
    "assay-value": "7940 nM"
  },
  {
    "structure-smiles-string": "Clc1cccc2c1CN=C(c1ccc3c(c1)CCO3)c1cccn1-2",
    "subject-of-test": "Trichophyton rubrum",
    "measurement-type": "IC50",
    "assay-value": "437 nM"
  },
  {
    "structure-smiles-string": "FC1(F)CCc2cc(C3=NCc4ccc(Cl)cc4-n4cccc43)ccc2O1",
    "subject-of-test": "Trichophyton rubrum",
    "measurement-type": "IC50",
    "assay-value": "269 nM"
  },
  {
    "structure-smiles-string": "O=C1CCCc2cc(C3=NCc4c(F)cccc4-n4cccc43)ccc21",
    "subject-of-test": "Trichophyton rubrum",
    "measurement-type": "IC50",
    "assay-value": "129 nM"
  },
  {
    "structure-smiles-string": "Clc1cc(Cl)c2c(c1)-n1cccc1C(c1ccc3c(c1)CCC3)=NC2",
    "subject-of-test": "Trichophyton rubrum",
    "measurement-type": "IC50",
    "assay-value": "676 nM"
  }
]

Query: So what's the measured IC50 for this one? "Clc1cc(Cl)c2c(c1)CN=C(c1ccc3c(c1)CCC3)c1cccn1-2"
Response: 794 nM

Query: What do you get for "Fc1cccc2c1CN=C(c1ccc3c(c1)CCC(F)(F)O3)c1cccn1-2" ?
Response: > 64600 nM

Query: What do you get for "O=C1CCCc2cc(C3=NCc4c(Cl)cccc4-n4cccc43)ccc21" ?
Response: 204 nM

Provenance of the data: patent US9040524B2
